B1: Subtilisin-chymotrypsin inhibitor-2A, P01053 (parent)
chain: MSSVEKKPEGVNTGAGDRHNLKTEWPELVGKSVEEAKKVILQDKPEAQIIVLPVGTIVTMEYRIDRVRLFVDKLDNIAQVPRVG

- Variants of: B1
- conditions: Hordeum vulgare; pH 6.25; 25 °C; GdnHCl; Fluorescence; MES 50 mM; reversible: yes; structure 2CI2; whole UniProt chain shown
endpoint.name: denaturant midpoint (higher = more stable) (M)

[
  {
    "mutation.notation": "L52V F70A",
    "numeric.readout": 2.24
  },
  {
    "mutation.notation": "R63A D65A",
    "numeric.readout": 3.37
  },
  {
    "mutation.notation": "T56V",
    "numeric.readout": 3.61
  },
  {
    "mutation.notation": "K31A",
    "numeric.readout": 4.22
  },
  {
    "mutation.notation": "D65A",
    "numeric.readout": 3.59
  },
  {
    "mutation.notation": "V58A",
    "numeric.readout": 3.24
  },
  {
    "mutation.notation": "F70A",
    "numeric.readout": 2.02
  },
  {
    "mutation.notation": "V58A F70L",
    "numeric.readout": 2.67
  },
  {
    "mutation.notation": "L52V",
    "numeric.readout": 3.74
  },
  {
    "mutation.notation": "E34Q",
    "numeric.readout": 3.85
  },
  {
    "mutation.notation": "Q42G",
    "numeric.readout": 3.69
  },
  {
    "mutation.notation": "E61A",
    "numeric.readout": 3.64
  }
]
